Test system: redroot pigweed (Amaranthus retroflexus)
protocol-description: Postemergence herbicidal activity
Assay type: in vivo
run-conditions: post-emergent, 140 g ai/ha, after 14 days
parameter-measured: % Control AMARE (%)
Form entry: value (%) — number only.

smiles-entry | % Control AMARE [%]
CCCCOCCOC(=O)c1nc(-c2ccc(Cl)c(OC)c2F)cc(N)c1Cl | 100
COC(=O)c1nc(-c2c(F)cc(F)c(OC)c2Cl)cc(N)c1Cl | 100
CN(C)c1c(Cl)ccc(-c2cc(N)c(Cl)c(C(=O)O)n2)c1F | 100
COC(=O)c1nc(-c2ccc(F)c(OC)c2F)cc(NC(C)=O)c1Cl | 100

Kindly consider the entry below.
// lookup % Control AMARE for COC(=O)c1nc(-c2ccc(Cl)c(SC)c2F)cc(N)c1Cl
100
